assay: Fish Toxicity Test; type: in vivo; settings: guppy, water; rank; 50% of female guppies killed during 48 hours, 20° C.; [Mixture] = cis/trans 50/50; read-out: TLm (medium tolerance limit)
measure-name: LC50 at 48 h

// known answers, use as guide
>  <compound>
CC1(C)C(CC(Cl)(Cl)Cl)C1C(=O)OCc1coc(Cc2ccccc2)c1 (centres unmarked) [Compound (28) [Mixture]]

>  <LC50 at 48 h>
≥ 10 µg/mL

$$$$
>  <compound>
CC1(C)C(C=C(Cl)Cl)C1C(=O)OCc1cccc(Oc2ccccc2)c1 (racemic) [Permethrin, reference compound]

>  <LC50 at 48 h>
≤ 0.5 µg/mL

$$$$
>  <compound>
C=CCC1=C(C)C(OC(=O)C2C(CC(Cl)(Cl)Cl)C2(C)C)CC1=O (centres unmarked) [Compound (38) [Mixture]]

>  <LC50 at 48 h>
0.5 to 10 µg/mL

$$$$
>  <compound>
CC(C)C(C(=O)OC(C#N)c1cccc(Oc2ccccc2)c1)c1ccc(Cl)cc1 (centres unmarked) [Fenvalerate, reference compound]

>  <LC50 at 48 h>
≤ 0.5 µg/mL

$$$$

Record summary for CC1(C)C(CC(Cl)(Cl)Cl)C1C(=O)OC(C#N)c1cccc(OC=C(Cl)Cl)c1 (centres unmarked) [Compound (34) [Mixture]] : reported LC50 at 48 h = ≥ 10 µg/mL

// field: LC50 at 48 h; key: CC1(C)[C@H](C(=O)OCc2cccc(Oc3ccccc3)c2)[C@@H]1CC(Cl)(Cl)Cl (relative stereo) [Compound (1) [Cis-isomer]] ; value = ≥ 10 µg/mL

Data point: CC1(C)C(C=C(Cl)Cl)C1C(=O)OC(C#N)c1cccc(Oc2ccccc2)c1 (centres unmarked) [Cypermethrin, reference compound] ; LC50 at 48 h = ≤ 0.5 µg/mL

Documented LC50 at 48 h of CC(C)=CC1C(C(=O)OCc2coc(Cc3ccccc3)c2)C1(C)C (centres unmarked) [Resmethrin, 5-benzyl-3-furylmethyl chrysanthemate, reference compound] : ≤ 0.5 µg/mL

====

assay: Fish Toxicity Test; assay type: in vivo; settings: guppy, water; rank; 50% of female guppies killed during 48 hours, 20° C.; [Mixture] = cis/trans 50/50; read-out: TLm (medium tolerance limit)
measure-name: LC50 at 48 h

>  <compound>
C#CC(OC(=O)C1C(CC(Cl)(Cl)Cl)C1(C)C)c1cccc(Oc2ccc(Cl)cc2)c1 (stereo not shown) [Compound (21) [Mixture]]

>  <LC50 at 48 h>
≥ 10 µg/mL

$$$$
>  <compound>
C=CCC1=C(C)C(OC(=O)C2C(C=C(C)C)C2(C)C)CC1=O (stereo not shown) [Allethrin, reference compound]

>  <LC50 at 48 h>
≤ 0.5 µg/mL

$$$$
>  <compound>
CC1(C)C(CC(Cl)(Cl)Cl)C1C(=O)OCc1cccc(Oc2ccc(Cl)cc2)c1 (stereo not shown) [Compound (2) [Mixture]]

>  <LC50 at 48 h>
≥ 10 µg/mL

$$$$
>  <compound>
CC1(C)C(CC(Cl)(Cl)Cl)C1C(=O)OCN1C(=O)C2=C(CCCC2)C1=O (stereo not shown) [Compound (37) [Mixture]]

>  <LC50 at 48 h>
0.5 to 10 µg/mL

$$$$
>  <compound>
C#CC(OC(=O)C1C(CC(Br)(Br)Br)C1(C)C)c1cccc(Oc2ccccc2)c1 (stereo not shown) [Compound (12) [Mixture]]

>  <LC50 at 48 h>
≥ 10 µg/mL

$$$$

Noted for CC1(C)C(CC(Cl)(Cl)Cl)C1C(=O)OCc1cccc(OC=C(Cl)Cl)c1 (stereo not shown) [Compound (33) [Mixture]] : its LC50 at 48 h reads ≥ 10 µg/mL

Item: CC1(C)C(CC(Cl)(Cl)Cl)C1C(=O)OC(C#N)c1cccc(Oc2ccc(Cl)cc2)c1 (stereo not shown) [Compound (15) [Mixture]] | LC50 at 48 h: ≥ 10 µg/mL

====

Listing of recorded mortality at 1 µg/fly by entry.
system: housefly (Musca domestica); assay: Mortality test against houseflies by topical application; format: in vivo; conditions: 24 h
Give your result in % as a bare value.

Below are worked cases with known answers.
>  <compound>
CC1(C)C(CC(Cl)(Cl)Cl)C1C(=O)OCN1C(=O)C2=C(CCCC2)C1=O (stereo not drawn) [Compound (37) [Mixture]]

>  <assayed-target>
housefly (Musca domestica)

>  <mortality at 1 µg/fly [%]>
40

$$$$
>  <compound>
C#CC(OC(=O)C1C(CC(Cl)(Cl)Cl)C1(C)C)c1cccc(Oc2ccc(Cl)cc2)c1 (stereo not drawn) [Compound (21) [Mixture]]

>  <assayed-target>
housefly (Musca domestica)

>  <mortality at 1 µg/fly [%]>
60

$$$$

Please fill in: mortality at 1 µg/fly reported for CC1(C)C(CC(Cl)(Cl)Cl)C1C(=O)OC(C#N)c1cccc(Oc2ccc(Cl)cc2)c1 (stereo not drawn) [Compound (15) [Mixture]] = 86.7

====

test system: housefly (Musca domestica); assay: Mortality test against houseflies by topical application; assay type: in vivo; details: 24 h
Binarize mortality at 1 µg/fly at 30%; below is yes, at or above is no.

Examples from the recorded data:
>  <compound>
CC(Cl)(Cl)CC1C(C(=O)OCc2cccc(Oc3ccccc3)c2)C1(C)C (stereo not shown) [Compound (5) [Mixture]]

>  <assigned-label>
no

$$$$
>  <compound>
C=CCC1=C(C)C(OC(=O)C2C(CC(Cl)(Cl)Cl)C2(C)C)CC1=O (stereo not shown) [Compound (38) [Mixture]]

>  <assigned-label>
yes

$$$$
>  <compound>
C=CCC1=C(C)C(OC(=O)C2C(C=C(C)C)C2(C)C)CC1=O (stereo not shown) [Allethrin, reference compound]

>  <assigned-label>
no

$$$$
>  <compound>
CC1(C)[C@H](C(=O)OCc2cccc(Oc3ccccc3)c2)[C@@H]1CC(Cl)(Cl)Cl (relative stereo) [Compound (1) [Cis-isomer]]

>  <assigned-label>
no

$$$$
>  <compound>
CC1(C)C(CC(Cl)(Cl)Cl)C1C(=O)OCc1cccc(Oc2ccc(Cl)cc2)c1 (stereo not shown) [Compound (2) [Mixture]]

>  <assigned-label>
yes

$$$$
>  <compound>
CC(Cl)(Cl)CC1C(C(=O)OC(C#N)c2cccc(Oc3ccccc3)c2)C1(C)C (stereo not shown) [Compound (9) [Mixture]]

>  <assigned-label>
no

$$$$

From here, focus on the item given below.
### Prompt Dear reviewer, please state whether CC1(C)C(CC(Cl)(Cl)Cl)C1C(=O)OCc1coc(Cc2ccccc2)c1 (stereo not shown) [Compound (28) [Mixture]] has mortality at 1 µg/fly strictly beneath 30%.
### Response no
